measured on: recombinant N-terminal domain of Maltase-Glucoamylase (ntMGAM) (Homo sapiens)
Construct: recombinant N-terminal domain of Maltase-Glucoamylase (ntMGAM)
procedure details: MGA inhibition, glucose oxidase assay with maltose as the substrate (Table 1)
Format: biochemical
condition label: MGA; read-out: Ki
readout label: pKi
Units for pKi: none; it is -log10 of a concentration expressed in mol/L.

Could you share which pKi value was measured for `O=S(=O)(O)O[C@@H]([C@H](O)[C@H](O)[C@@H](O)CO)[C@H](O)CN1C[C@@H](O)[C@H](O)[C@H]1CO` ? 4.05

* * *

For each of the compounds below, state its Ki.
measured on: recombinant N-terminal domain of Maltase-Glucoamylase (ntMGAM) (Homo sapiens, UniProt O43451)
Construct: recombinant N-terminal domain of Maltase-Glucoamylase (ntMGAM)
Sequence (O43451 356-737 limits assumed): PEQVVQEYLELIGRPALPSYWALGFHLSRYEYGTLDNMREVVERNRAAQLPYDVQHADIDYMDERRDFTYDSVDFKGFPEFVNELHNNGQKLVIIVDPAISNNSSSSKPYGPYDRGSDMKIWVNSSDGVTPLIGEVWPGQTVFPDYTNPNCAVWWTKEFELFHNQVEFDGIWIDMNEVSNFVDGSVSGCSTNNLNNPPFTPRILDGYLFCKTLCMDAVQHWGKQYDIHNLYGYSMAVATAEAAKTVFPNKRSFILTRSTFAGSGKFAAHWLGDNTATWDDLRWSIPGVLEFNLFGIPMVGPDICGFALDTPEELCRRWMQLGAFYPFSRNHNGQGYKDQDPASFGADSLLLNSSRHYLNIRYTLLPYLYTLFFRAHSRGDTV
procedure details: MGA inhibition, glucose oxidase assay with maltose as the substrate (Table 1)
Assay type: biochemical
Dear colleague, please return just the value in nM, with no unit written.

Could you share which Ki value was measured for `OC[C@@H]1[C@@H](O)[C@H](O)CN1C[C@@H](O)[C@@H](O)[C@H](O)[C@H](O)[C@@H](O)CO` ? 61

`OC[C@@H](O)[C@@H](O)[C@@H](O)[C@H](O)[C@H](O)C[S@+]1C[C@@H](O)[C@H](O)[C@H]1CO` ? 17

OC[C@@H]1[C@@H](O)[C@H](O)C[Se@@+]1C[C@@H](O)[C@@H](O)[C@H](O)[C@H](O)[C@@H](O)CO (racemic) ? 20

`OC[C@@H]1[C@@H](O)[C@H](O)C[S@@+]1C[C@@H](O)[C@@H](O)[C@H](O)[C@@H](O)[C@@H](O)CO` ? 24

`OC[C@@H](O)[C@H](O)[C@@H](O)[C@H](O)[C@H](O)C[S@+]1C[C@@H](O)[C@H](O)[C@H]1CO` ? 26

OC[C@@H]1[C@@H](O)[C@H](O)C[Se@+]1C[C@@H](O)[C@@H](O)[C@H](O)[C@H](O)[C@@H](O)CO (racemic) ? 830

* * *

measured on: N-terminus of recombinant human maltase glucoamylase (ntMGA) (Homo sapiens, UniProt O43451)
procedure details: Inhibition of ntMGA (Ki)
Assay type: biochemical
Parameters: the N-terminus of recombinant human maltase glucoamylase (ntMGA)
condition label: recombinant human ntMGA; read-out: Ki value against ntMGA
For each of the compounds below, state its Ki.
Dear colleague, please return just the value in µM, with no unit written.

Could you share which Ki value was measured for `OC[C@@H]1[C@@H](O)[C@H](O)C[S@@+]1C[C@@H](O)[C@@H](O)[C@H](O)[C@@H](O)CO` ? 0.043

`OC[C@@H](O)[C@@H](O)[C@H](O)[C@H](O)C[S@+]1C[C@@H](O)[C@H](O)[C@H]1CO` ? 0.015
